test system: CAMK2A; settings: concentration: 1 μM, replicates: in singlicate; n = 1;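 note: KINOMEscan kinase panel screen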
parameter-measured: %Inh (%)

INSERT INTO assay_data (molecule, unit_info, reported_value) VALUES
  ('Cc1c(Cn2ccn3c(=O)cc(N4CCOCC4)nc23)cccc1C(F)(F)F', '%', 83),
  ('COc1cc2ncn(-c3cc(OCC4CCCO4)c(C(N)=O)s3)c2cc1OC (stereo not drawn)', '%', 0),
  ('Cl.NC(=O)c1cccc(Nc2nccc(Nc3ccc(Oc4cccc(Cl)c4)c(Cl)c3)n2)c1', '%', 0),
  ('COc1ccccc1CNC(=O)c1cc(C(=O)c2ccccc2C)c[nH]1', '%', 0),
  ('CS(=O)(=O)c1ccc(-c2c(-c3ncn[nH]3)sc(N3CCOCC3)c2C#N)cc1', '%', 14),
  ('Cc1c(O)cccc1Nc1ccnc2ccc(C(F)(F)F)cc12.Cl', '%', 0),
  ('C[C@@H]1CCCCN1c1cc(-c2ccc3c(N)n[nH]c3c2)nc(N)n1', '%', 0),
  ('CN1C(=O)C(Nc2ccc(Cl)c(C(=O)O)c2)=C(c2ccc(Cl)cc2)C1=O', '%', 17),
  ('CCn1c(-c2cccnc2O)nc2cnccc21', '%', 0),
  ('Cl.Oc1ccc(-c2nc(-c3ccccc3)[nH]c2-c2ccncc2)cc1', '%', 0),
  ('Cc1cccc(-c2nc(C)cc(Nc3ccncc3)n2)n1', '%', 0),
  ('CCCc1ccc(S(=O)(=O)NC2CCN(c3ccnc(Nc4ccc(F)cc4)n3)C2)cc1 (stereo not drawn)', '%', 0),
  ('Cc1ccc(NC(=O)Nc2cccc(Cl)c2)cc1-c1ccc(C(=O)Nc2ccncc2)cc1', '%', 0),
  ('O=C(Nc1n[nH]c2nc(-c3nccs3)c(Br)cc12)C1CCCC1', '%', 0),
  ('CC(=O)Nc1nc2cnc(Nc3cc(NC(=O)c4cccc(CCC#N)c4)ccc3C)nc2s1', '%', 20),
  ('COc1ccc(Nc2nccc(-c3cccc(NC(=O)c4cc5cc(F)ccc5[nH]4)c3)n2)cc1', '%', 0),
  ('Nc1nc(-c2nccs2)c(-c2ccnc3ccccc23)s1', '%', 0),
  ('COc1cc2nccc(Nc3ccc(NC(=O)c4ccc(C)cc4)c(O)c3)c2cc1OC.Cl', '%', 0);
